The entries below are paired with their reported viability.
experiment: growth suppression of beta-catenin knockout HCT116, pilot screen, human colon tumor cells (AID 823); settings: CellTiter-Glo, 60 h, at 10 µM, hits give low values;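 further: 0% = wells killed by 20 µM Hyamine and 100% = untreated DMSO cell wells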
Results filed as inconclusive are left out. The source made the active and inactive calls.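 How the source made its calls: active means cell viability at or below a set limit in both duplicate runs, the limit being the all-compound median minus 4 SD (cut at about 23% in these data, passing the limit was not always enough); inconclusive means no clear call, values can overlap the other calls; inactive means the rest.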

Some solved entries appear below for comparison.
Request: Record request: viability value, item CCOC(=O)c1oc2cc(O)ccc2c(=O)c1-c1ccccc1OC
Response: 98.4% (inactive)

Request: Record request: viability value, item O=C(Cc1cc(=O)[nH]c(=O)[nH]1)N1CCC(Cc2ccccc2)CC1
Response: 96% (inactive)

Request: Record request: viability value, item Cc1ccc2nc(NC(=O)C3CCN(S(=O)(=O)c4ccc5c(c4)oc(=O)n5C)CC3)sc2c1
Response: 82.2% (inactive)

Request: Record request: viability value, item COc1cc(CO)cc(Br)c1OCC(=O)O
Response: 102% (inactive)

Request: Record request: viability value, item CCOc1ccc(C(=O)NCc2ccncc2)cc1OCC
Response: 92.9% (inactive)

Others:
Request: Record request: viability value, item CCCc1cc(C(=O)Nc2cccc(Cl)c2)no1
Response: 102% (inactive)

Request: Record request: viability value, item N#CCCN1CCN(S(=O)(=O)c2ccc(S(=O)(=O)N3CCCCCC3)cc2)CC1
Response: 97.4% (inactive)

Request: Record request: viability value, item CC(=O)N1CCc2cc(C(=O)CN3CCCCC3)ccc21
Response: 99% (inactive)

Request: Record request: viability value, item CCN1CCN(CC(=O)NC2CCCC2)C(=O)C1=O
Response: 114% (inactive)

Request: Record request: viability value, item Cc1nnc(NC(=O)CSc2cn(Cc3ccccc3)c3ccccc23)s1
Response: 82.2% (inactive)

Request: Record request: viability value, item COc1ccc(O)c(C(=O)c2cnn(C(=O)c3cc(C)oc3C)c2)c1
Response: 97.2% (inactive)

Request: Record request: viability value, item CCOc1cc(C(=O)NC(C)COC)cc(OCC)c1OCC (stereo not given)
Response: 104% (inactive)

Request: Record request: viability value, item COc1ccc(C2C(C(=O)c3cccs3)=C(O)C(=O)N2c2nnc(C)s2)cc1OC (stereo not given)
Response: 102% (inactive)

Request: Record request: viability value, item CCOc1ccc(N2C(=O)c3ccccc3C2O)cc1 (stereo not given)
Response: 101% (inactive)

Request: Record request: viability value, item COC(=O)C1=C(C)n2cnnc2NC1c1ccc(Cl)cc1 (stereo not given)
Response: 104% (inactive)

Request: Record request: viability value, item CC(=O)Nc1ccc(S(=O)(=O)Nc2nc(C)cc(-n3nc(C)cc3C)n2)cc1
Response: 102% (inactive)

Request: Record request: viability value, item CCN(CC)S(=O)(=O)c1ccc(C(=O)Nc2ccc(OCC(=O)N3CCOCC3)cc2)cc1
Response: 86.6% (inactive)

Request: Record request: viability value, item CCCCOC(=O)CSc1nnc(N)s1
Response: 105% (inactive)

Request: Record request: viability value, item CCOC(=O)N1CCC(NC(=O)c2ccc(NC(=O)C3CCCO3)cc2)CC1 (stereo not given)
Response: 97.8% (inactive)

Request: Record request: viability value, item Nn1c(SCc2nc3ccccc3[nH]2)nnc1-c1cccnc1
Response: 90.2% (inactive)

* * *

experiment: viability gain of MRP-1-high H69AR cells under doxorubicin, pilot screen, MRP-1 activator project, CellTiter-Glo, duplicate (AID 807); conditions: H69AR viability with doxorubicin, CellTiter-Glo luminescence; at 10 µM; hits give high values;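 further: compound pretreatment 18-22 h then 72 h combined with doxorubicin; 0% = doxorubicin alone and 100% = vehicle without doxorubicin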
ENDPOINT: viability increase (%)
Please respond with the number in % and leave the unit unwritten.

Some solved entries appear below for comparison.
Request: Record request: viability increase value, item COC(=O)C1CCN(C(c2cc(OC)c(OC)c(OC)c2)c2sc3nc(C)nn3c2O)CC1 (stereo not drawn)
Response: -1.81

Request: Record request: viability increase value, item O=C(Cn1c(N2CCN(c3ccccc3)CC2)nc2ccccc21)c1ccccc1
Response: -3.76

Request: Record request: viability increase value, item COc1cccc(CNC(=O)c2ccc(NC(=O)C3CCCO3)cc2)c1 (stereo not drawn)
Response: 0.53

Request: Record request: viability increase value, item CCN(CC)CC(=O)Nc1cc(C)c2c(=O)oc3ccccc3c2n1
Response: -3.1

Request: Record request: viability increase value, item COc1ccc(NC(=O)Nc2cccc(C)n2)cc1
Response: -1.44

Others:
Request: Record request: viability increase value, item CCCCn1c(=O)n(CC(=O)Nc2ccc(C)c(Cl)c2)c(=O)c2c1ncn2Cc1ccco1
Response: 0.99

Request: Record request: viability increase value, item COc1ccc(C)c(S(=O)(=O)Nc2ccc(OCC(=O)O)cc2)c1
Response: -1.41

Request: Record request: viability increase value, item Cc1ccccc1Nc1ncnc2c1cnn2-c1ccccc1
Response: -3.78

Request: Record request: viability increase value, item CCOc1ccc(N(CC(=O)NCC(C)C)S(C)(=O)=O)cc1
Response: -0.04

Request: Record request: viability increase value, item O=C1c2ccccc2C(Nc2ccc3c(c2)OCCO3)N1Cc1ccccc1 (stereo not drawn)
Response: -1.12

Request: Record request: viability increase value, item O=C(O)CCC(C(=O)O)n1c(O)c(C2=c3ccccc3=NC2=O)sc1=S (stereo not drawn)
Response: -4.54

Request: Record request: viability increase value, item CC(=O)NC(CCS(C)(=O)=O)C(=O)Nc1cc(C)ccc1C (stereo not drawn)
Response: 0.57

Request: Record request: viability increase value, item CCOc1ccc(-n2c(Cc3cc(=O)[nH]c(=O)[nH]3)nnc2SCC(=O)NC2CCCC2)cc1
Response: -0.16

* * *

assay: RAM signaling pathway blockade in yeast – S. cerevisiae, Pdr1DBD-CYC8 efflux-inhibited sensitized strain, primary screen (AID 1298);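 further: 0% = DMSO untreated cells without growth and 100% = 10 µM 1-NA-PP1 full growth; higher means more yeast growth rescued from 5-FOA killing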; details: S. cerevisiae cbk1-as DSE1-URA3 strain, 5-FOA growth OD615, 2 d; at 50 µM; hits give high values
The entries below are paired with their reported RAM network inhibition.
Please respond with the number in % and leave the unit unwritten.

Request: Record request: RAM network inhibition value, item COCCCN1CC23C=CC(O2)C(C(=O)O)C3C1=O (configuration not stated)
Response: 4.16

Request: Record request: RAM network inhibition value, item CCOC(=O)N1CCN(C(=O)C2CCCN(c3nc4ccc(OCC)cc4s3)C2)CC1 (configuration not stated)
Response: 5.16

Request: Record request: RAM network inhibition value, item COCC(=O)Nc1cc(C)c2c(=O)oc3ccccc3c2n1
Response: 2.67

Request: Record request: RAM network inhibition value, item Cc1onc(-c2ccccc2)c1C(=O)Nc1sc2c(c1C#N)CCC2
Response: 0.09

Request: Record request: RAM network inhibition value, item CN(C)CCCN1C(=O)c2oc3ccc(F)cc3c(=O)c2C1c1cccnc1 (configuration not stated)
Response: 2.14

Request: Record request: RAM network inhibition value, item COc1cc(C(=O)Oc2c(CN3CCOCC3)cc(Cl)c3cccnc23)cc(OC)c1OC
Response: 0.27

Request: Record request: RAM network inhibition value, item O=C(c1cc(-c2ccccc2)nc2ccccc12)N1CCOCC1
Response: 1.87

Request: Record request: RAM network inhibition value, item COC(=O)c1ccsc1NC(=O)c1ccc2c(c1)OCCO2
Response: 2.08

Request: Record request: RAM network inhibition value, item CCCCn1cc(C(C)(C)C)c(C#N)c1NC(C)=O
Response: 5.33

Request: Record request: RAM network inhibition value, item Cc1cccc(-n2ncc3c(Nc4ccc(F)cc4)ncnc32)c1
Response: 1.56

Others:
Request: Record request: RAM network inhibition value, item CC1=C(C(N)=O)C(c2ccccc2)n2nc(-c3cccs3)nc2N1 (configuration not stated)
Response: 3.65

Request: Record request: RAM network inhibition value, item CC(NC(=O)C1CCCN(S(=O)(=O)c2cnc[nH]2)C1)c1ccccc1 (configuration not stated)
Response: -0.35

Request: Record request: RAM network inhibition value, item CC(CCc1ccccc1)NC(=O)C1CCN(C(=O)c2sccc2-n2cccc2)CC1 (configuration not stated)
Response: 2.14

Request: Record request: RAM network inhibition value, item CCn1ncc(C2=NOC(C(=O)Nc3c(C)nn(Cc4ccc(F)cc4)c3C)C2)c1C (configuration not stated)
Response: 1.41

Request: Record request: RAM network inhibition value, item O=C(C1CCN(S(=O)(=O)c2cccc3cccnc23)CC1)N1CCN(c2ccc(Cl)cc2)CC1
Response: 4.56

Request: Record request: RAM network inhibition value, item C=CCSc1nc2c(c(=O)[nH]1)C(C(C)C)C(C#N)=C(N)O2 (configuration not stated)
Response: 1.88

Request: Record request: RAM network inhibition value, item CCOC(=O)CN1CC23C=CC(O2)C(C(=O)N2CCN(c4ccc(F)cc4)CC2)C3C1=O (configuration not stated)
Response: -0.56

Request: Record request: RAM network inhibition value, item CC(=O)N(c1ccccc1)C1SC(=O)N(c2ccccc2)C1=O (configuration not stated)
Response: 6.65

Request: Record request: RAM network inhibition value, item N/C(CC(=O)Nc1cccc(C(F)(F)F)c1)=N/O
Response: 4.4

Request: Record request: RAM network inhibition value, item COC(=O)c1ccc(-n2nnnc2SCC(=O)N2CCCCC2)cc1
Response: 1.64

Request: Record request: RAM network inhibition value, item Cc1ccc2cc(CCNC(=O)CC(C)C)c(=O)[nH]c2c1
Response: 3.87

Request: Record request: RAM network inhibition value, item CCC(=O)N=c1sc2c(C)cc(C)cc2n1CC(=O)OC
Response: 2.76

Request: Record request: RAM network inhibition value, item NC(=O)C1(N2CCCCC2)CCN(S(=O)(=O)c2cc(Cl)ccc2Cl)CC1
Response: 6.42

Request: Record request: RAM network inhibition value, item CSC1=NCCN1C(=O)COc1ccc2ccccc2c1
Response: -0.94

Request: Record request: RAM network inhibition value, item CCn1c(-c2ccccc2O)n[nH]c1=S
Response: 0.81

Request: Record request: RAM network inhibition value, item CCOC(=O)c1sc(NC(=O)c2ccc3ncsc3c2)nc1C
Response: 5.36

Request: Record request: RAM network inhibition value, item COc1ccccc1CNc1ncnc2c1cnn2-c1ccccc1
Response: 0.57
